Test system: RPMI 8402
experiment: MTT-microtiter plate tetrazolinium cytotoxicity assay (Test B)
Assay type: cell-based, human
measurement-context: human lymphoblast RPMI 8402 cells; continuous exposure 3-4 days, MTT; read-out: RPMI 8402 [μM] IC50 values
assay-metric: IC50 (µM)

>>> df
                                   molecule  observed_result
0  CCc1c2c(nc3ccc(OC(=O)N4CCC(N5CCCCC5)CC4)cc13)-c1cc3c(c(=O)n1C2)COC(=O)[C@]3(O)CC [Irinotecan]             0.57
1  CC[C@@]1(O)C(=O)OCc2c1cc1n(c2=O)Cc2cc3c(CN(C)C)c(O)ccc3nc2-1 [Topotecan]            0.005
2  COc1cc2c(=O)n(CCN(C)C)c3c4cc5c(cc4nnc3c2cc1OC)OCO5 [Compound 5]            0.003

----------
Known melting point of a selection of compounds
assay-metric: melting point

>>> df
                                   compound   assay_metric       observed_result
0  COc1cc2c(=O)n(CCN3CCCCC3)c3c4cc5c(cc4nnc3c2cc1OC)OCO5  melting point         294 to 295 °C
1  COc1cc2c(=O)n(CCCN(C)C)c3c4cc5c(cc4ncc3c2cc1OC)OCO5  melting point  262 to 264 °C (dec.)
2  COc1cc2c(=O)n(CCN3CCN(C)CC3)c3c4cc5c(cc4ncc3c2cc1OC)OCO5  melting point         244 to 246 °C
3  COc1cc2c(cc1OC)-c1cnc3cc4c(cc3c1N(C(C)CN(C)C)C2)OCO4 (centres unmarked)  melting point         153 to 154 °C
4  COc1cc2c(=O)n(CCO)c3c4cc5c(cc4ncc3c2cc1OC)OCO5  melting point         285 to 286 °C
5  COc1cc2c(=O)n(CC3CCCO3)c3c4cc5c(cc4ncc3c2cc1OC)OCO5 (centres unmarked)  melting point         270 to 273 °C
6  COc1cc2c(=O)n(CCOCCO)c3c4cc5c(cc4ncc3c2cc1OC)OCO5  melting point                235 °C
7  COc1cc2c(=O)n(CC3CCCO3)c3c4cc5c(cc4nnc3c2cc1OC)OCO5 (centres unmarked)  melting point  300 to 303 °C (dec.)

----------
assay-metric: melting point

>>> df
                                   compound       observed_result
0  COc1cc2c(=O)n(CCN3CCCC3)c3c4cc5c(cc4ncc3c2cc1OC)OCO5  255 to 257 °C (dec.)
1  COc1cc2c(cc1OC)-c1cnc3cc4c(cc3c1N(CCN(C)C)C2)OCO4  271 to 273 °C (dec.)
2  COc1cc2c(=O)n(CCN3CCCC3)c3c4cc5c(cc4nnc3c2cc1OC)OCO5                229 °C
3  CCN(CC)CCn1c(=O)c2cc(OC)c(OC)cc2c2cnc3cc4c(cc3c21)OCO4  221 to 223 °C (dec.)
4  COc1cc2c(=O)n(C(C)CN(C)C)c3c4cc5c(cc4ncc3c2cc1OC)OCO5 (centres unmarked)         186 to 187 °C
